# test-system: p-EGFR L858R (BaF3-L858R cells) (Homo sapiens, UniProt P00533, L858R)
# Sequence (P00533 25-1210 L858R): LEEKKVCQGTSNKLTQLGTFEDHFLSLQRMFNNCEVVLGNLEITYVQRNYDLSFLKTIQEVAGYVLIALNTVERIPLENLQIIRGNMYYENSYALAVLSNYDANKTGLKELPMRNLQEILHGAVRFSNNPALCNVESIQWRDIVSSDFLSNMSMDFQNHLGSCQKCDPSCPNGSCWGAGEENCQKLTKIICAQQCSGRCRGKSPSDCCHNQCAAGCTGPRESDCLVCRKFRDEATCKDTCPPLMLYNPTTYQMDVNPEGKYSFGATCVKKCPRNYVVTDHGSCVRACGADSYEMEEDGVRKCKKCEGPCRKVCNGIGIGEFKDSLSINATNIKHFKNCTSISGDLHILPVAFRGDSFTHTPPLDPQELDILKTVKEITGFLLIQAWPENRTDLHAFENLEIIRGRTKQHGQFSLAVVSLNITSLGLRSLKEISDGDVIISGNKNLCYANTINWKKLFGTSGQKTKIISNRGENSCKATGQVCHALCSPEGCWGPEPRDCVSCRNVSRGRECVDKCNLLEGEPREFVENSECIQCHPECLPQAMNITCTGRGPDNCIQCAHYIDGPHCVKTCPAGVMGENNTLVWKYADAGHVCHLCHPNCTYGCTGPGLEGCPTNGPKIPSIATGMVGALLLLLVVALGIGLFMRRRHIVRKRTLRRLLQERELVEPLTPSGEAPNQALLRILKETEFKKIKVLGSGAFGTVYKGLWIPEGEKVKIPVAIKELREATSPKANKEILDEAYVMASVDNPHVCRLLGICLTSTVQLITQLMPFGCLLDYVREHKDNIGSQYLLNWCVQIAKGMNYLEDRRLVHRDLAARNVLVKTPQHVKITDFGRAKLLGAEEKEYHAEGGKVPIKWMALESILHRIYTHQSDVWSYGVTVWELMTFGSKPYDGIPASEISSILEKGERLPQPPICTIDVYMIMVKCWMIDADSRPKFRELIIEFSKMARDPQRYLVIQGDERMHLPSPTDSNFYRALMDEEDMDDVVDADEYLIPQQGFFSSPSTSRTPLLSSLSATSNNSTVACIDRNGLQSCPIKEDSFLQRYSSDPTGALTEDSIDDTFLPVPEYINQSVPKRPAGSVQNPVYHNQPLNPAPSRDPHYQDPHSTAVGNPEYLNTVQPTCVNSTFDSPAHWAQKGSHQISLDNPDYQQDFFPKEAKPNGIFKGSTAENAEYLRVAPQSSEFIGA
# experiment-summary: Cell p-EGFR inhibition assay, HTRF, BaF3-L858R cells
# measurement-context: 16 h treatment, pEGFR inhibition
pIC50: −log10 of the molar value.
property-measured: pIC50

# compound, quantitative-result
rows = [
    ("Cc1cc2cc(n1)-c1c(C)nn(C)c1OC[C@H]1CCC(C1)CN1/C(=N/C2=O)Nc2ccc(N3CCN(C4CCN(c5cc(F)c([C@H]6CCC(=O)NC6=O)c(F)c5)CC4)CC3)cc21", 8.49),
    ("COC[C@@H]1CN(c2ccc3c(c2)N2CC4CC[C@H](COc5c(c(C)nn5C)-c5cc(cc(C)n5)C(=O)/N=C/2N3)C4)CCN1CC1CCN(c2cc(F)c([C@H]3CCC(=O)NC3=O)c(F)c2)CC1", 8.31),
    ("CCc1nn(C)c2c1-c1cc(cc(C)n1)C(=O)/N=C1\\Nc3ccc(N4CCN(C5CCN(c6cc(F)c([C@H]7CCC(=O)NC7=O)c(F)c6)CC5)[C@@H](COC)C4)cc3N1C[C@@H]1CC[C@H](CO2)C1", 8.55),
    ("Cc1cc2cc(n1)-c1cnn(C)c1OC[C@H]1CCC(C1)CN1/C(=N/C2=O)Nc2ccc(N3CCN(C4CCN(c5cc(F)c([C@H]6CCC(=O)NC6=O)c(F)c5)CC4)[C@@H](CO)C3)cc21", 8.10),
    ("COCCn1nc(C)c2c1OC[C@H]1CC[C@H](C1)CN1/C(=N/C(=O)c3cc(C)nc-2c3)Nc2ccc(N3CCN(C4CCN(c5cc(F)c([C@H]6CCC(=O)NC6=O)c(F)c5)CC4)CC3)cc21", 8.35),
    ("COC[C@@H]1CN(c2ccc3c(c2)N2C[C@@H]4CC[C@H](COc5c(c(C)nn5C)-c5cc(cc(C)n5)C(=O)/N=C/2N3)C4)CCN1C1CCN(c2cc(F)c(C3CCC(=O)NC3=O)nc2C)CC1 (stereo partly drawn)", 8.10),
    ("COC[C@H]1CN(c2ccc3c(c2)N2CC4CC[C@H](COc5c(c(C(F)(F)F)nn5C)-c5cc(cc(C)n5)C(=O)/N=C/2N3)C4)CCN1C1CCN(c2cc(F)c([C@H]3CCC(=O)NC3=O)c(F)c2)CC1", 7.97),
    ("Cc1cc2cc(n1)-c1cnn(C)c1OC[C@H]1CCC(C1)CN1/C(=N/C2=O)Nc2ccc(N3CCC(CN4CCC(Nc5cc(F)c([C@H]6CCC(=O)NC6=O)c(F)c5)CC4)CC3)cc21", 8.19),
    ("Cc1cc2cc(n1)-c1cnn(C)c1OC[C@H]1CCC(C1)CN1/C(=N/C2=O)Nc2ccc(N3CCN(C4CCN(c5c(F)cc(NC6CCC(=O)NC6=O)cc5F)CC4)CC3)cc21 (stereo partly drawn)", 8.00),
    ("Cc1cc2cc(n1)-c1c(C)nn(C)c1OC[C@H]1CC[C@H](C1)CN1/C(=N/C2=O)Nc2ccc(N3CCC(C)(CN(C)C4CCN(c5cc(F)c([C@H]6CCC(=O)NC6=O)c(F)c5)CC4)CC3)cc21", 8.06),
    ("Cc1cc2cc(n1)-c1c(C)nn(C)c1OC[C@H]1CC[C@H](C1)CN1/C(=N/C2=O)Nc2ccc(N3CCN([C@H]4CCN(c5cc(F)c([C@H]6CCC(=O)NC6=O)c(F)c5)C4)CC3)cc21 (single isomer, unassigned)", 8.32),
    ("Cc1nn(C)c2c1-c1cc(cc(Cl)n1)C(=O)/N=C1\\Nc3ccc(N4CCN(C5CCN(c6cc(F)c([C@H]7CCC(=O)NC7=O)c(F)c6)CC5)CC4)cc3N1C[C@@H]1CC[C@H](CO2)C1", 7.84),
    ("Cc1cc2cc(n1)-c1cnn(C)c1OC[C@H]1CCC(C1)CN1/C(=N/C2=O)Nc2cc(F)c(N3CCN(C4CCN(c5cnc(C6CCC(=O)NC6=O)cc5C)CC4)CC3)cc21 (stereo partly drawn)", 8.17),
    ("COC[C@@H]1CN(c2cc3c(cc2C)N/C2=N\\C(=O)c4cc(C)nc(c4)-c4cnn(C)c4OC[C@H]4CC[C@H](C4)CN23)CCN1C1CCN(c2cc(F)c([C@H]3CCC(=O)NC3=O)c(F)c2)CC1", 8.20),
    ("COC[C@H]1CN(c2ccc3c(c2)N2CC4CC[C@H](COc5c(c(C)nn5C)-c5cc(cc(C)n5)C(=O)/N=C/2N3)C4)CCN1C1CCN(c2cc(F)c([C@H]3CCC(=O)NC3=O)c(F)c2)CC1", 8.46),
    ("Cc1cc2cc(n1)-c1c(C)nn(C)c1OC[C@H]1CCC(C1)CN1/C(=N/C2=O)Nc2ccc(N3CCN(CC4CCN(c5cc(F)c([C@H]6CCC(=O)NC6=O)c(F)c5)CC4)[C@H](C)C3)cc21", 8.60),
    ("COCCn1nc(C)c2c1OC[C@H]1CC[C@H](C1)CN1/C(=N/C(=O)c3cc(C)nc-2c3)Nc2ccc(N3CCN(C4CCN(c5cc(F)c([C@H]6CCC(=O)NC6=O)c(F)c5)CC4)[C@@H](COC)C3)cc21", 8.52),
    ("COC[C@H]1CN(c2cc3c(cc2F)N/C2=N\\C(=O)c4cc(C)nc(c4)-c4c(C)nn(C)c4OC[C@H]4CC[C@H](C4)CN23)CCN1C1CCN(c2cc(F)c([C@H]3CCC(=O)NC3=O)c(F)c2)CC1", 8.32),
]
